- TARGET_OF_ASSAY: recombinant human PAI-1 (Homo sapiens, UniProt P05121)
- Construct: purchased Molecular Innovations, Inc
- Sequence (P05121 24-402): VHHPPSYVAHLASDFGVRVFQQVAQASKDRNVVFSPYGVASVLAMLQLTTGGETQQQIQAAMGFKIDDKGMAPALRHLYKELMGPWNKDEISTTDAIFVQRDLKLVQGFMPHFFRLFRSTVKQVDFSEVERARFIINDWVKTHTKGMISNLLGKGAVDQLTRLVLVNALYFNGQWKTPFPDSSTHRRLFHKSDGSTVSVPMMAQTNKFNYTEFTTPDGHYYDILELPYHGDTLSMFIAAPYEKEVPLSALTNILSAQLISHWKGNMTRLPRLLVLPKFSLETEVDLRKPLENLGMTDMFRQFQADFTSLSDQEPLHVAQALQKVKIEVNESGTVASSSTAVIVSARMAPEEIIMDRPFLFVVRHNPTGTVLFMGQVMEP
- ASSAY_NAME: Test Example 1: human PAI-1 inhibitory activity (tPA fluorogenic substrate, pH 7.5 Tris buffer)
- Format: biochemical
- SETUP_CONDITIONS: Compound Concentration 5 μM; Tris buffer
# Inhibition Rate of PAI-1 Activity (%) >= 30% gives yes (1), anything below gives no (0)

Study these solved cases before continuing.
# COMPOUND, CLASS_LABEL
rows = [
    ("CN(C(=O)C(=O)O)c1cc(-c2ccc(OC(F)(F)F)cc2)ccc1OCc1ccc(C(C)(C)C)cc1 [Compound 17]", "yes (1)"),
    ("CC(C)(C)c1ccc(CN(C(=O)C(=O)O)c2ccc(-c3ccc(OC(F)(F)F)cc3)c(C(F)(F)F)c2)cc1 [Compound 166]", "yes (1)"),
    ("O=C(O)C(=O)N(Cc1ccccc1)c1c(Cl)cc(-c2ccc(OC(F)(F)F)cc2)cc1Cl [Compound 180]", "no (0)"),
    ("COc1ccc(-c2ccc(OCc3ccc(C(C)(C)C)cc3)c(CCC(=O)O)c2)cc1 [Compound 38]", "no (0)"),
    ("CC(C)(C)c1ccc(COc2ccc(-c3ccc(OC(F)(F)F)cc3)cc2OCCCC(=O)O)cc1 [Compound 109]", "no (0)"),
]

stdin: Please tell me: is the compound CC(C)(C)c1ccc(CN(C(=O)C(=O)O)c2ccc(N3CCCCC3=O)c(-c3ccc(OC(F)(F)F)cc3)c2)cc1 [Compound 219] at or over 30% in terms of Inhibition Rate of PAI-1 Activity (%)?
stdout: yes (1)

stdin: Assess whether reported Inhibition Rate of PAI-1 Activity (%) for O=C(O)C(=O)N(CCCCc1ccccc1)c1ccc(N2CCCCC2=O)c(-c2ccc(OC(F)(F)F)cc2)c1 [Compound 250] sits at 30% or higher.
stdout: yes (1)

stdin: Threshold query (Inhibition Rate of PAI-1 Activity (%) >= 30%) on O=C(O)CCc1cc(-c2ccc(OC(F)(F)F)cc2)ccc1OCc1ccc(Cl)cc1Cl [Compound 27]
stdout: no (0)

stdin: Tell me whether Inhibition Rate of PAI-1 Activity (%) is at least 30% here: Cc1cc(C)cc(CN(C(=O)C(=O)O)c2ccc(-c3ccc(OC(F)(F)F)cc3)cc2)c1 [Compound 123]
stdout: no (0)

stdin: Hi, just wondering whether CCCOc1ccc(N(CCCc2ccccc2)C(=O)C(=O)O)cc1-c1ccc(OC(F)(F)F)cc1 [Compound 229] shows Inhibition Rate of PAI-1 Activity (%) of 30% or higher.
stdout: yes (1)

stdin: Exam item: decide whether the reported Inhibition Rate of PAI-1 Activity (%) for CN(c1ccc(OC(F)(F)F)cc1)c1ccc(OCc2ccc(C(C)(C)C)cc2)c(CCC(=O)O)c1 [Compound 417] is at least 30%.
stdout: yes (1)
